B1: Tesmin, residues 368 to 403; numbered along this chain, Q9Y4I5 (parent)
chain: KGCNCRRSGCLKNYCECYEAQIMCSSICKCIGCKNY

Variants of: B1
Experiment: abundance fitness (aPCA) (normalised: wild type 0, dead -1); higher = more abundant; growth selection in yeast, the domain comes from the species named
Details: Homo sapiens
Would you mind telling me the reported abundance fitness of each entry?
Form: value (number only, do not type unit).

Lab note: Y14R gave abundance fitness of 0.01

Documented abundance fitness of N13P : -0.258

Lab note: measured abundance fitness of K12H was -0.217

Entry C30E , abundance fitness reported as -0.226

Given item I22N , the value recorded as its abundance fitness is 0.551

The value of abundance fitness measured for the variant Q21D turned out to be -0.566

In plain terms, I27K has a documented abundance fitness of 0.153

C33H has a reported abundance fitness of -0.106

Per the record, E16P has abundance fitness of -0.327

Per the records, this variant ( C24D ) has abundance fitness equal to -0.107

The variant listed as Y14A shows abundance fitness equal to -0.253

abundance fitness recorded for this variant, M23T , is -0.419

Lab book: abundance fitness of C3S noted as -0.702

// abundance fitness lookup, variant = S26R , result: -0.241

Looking up Y18W , I see its abundance fitness listed as -0.047

# variant K1E ; its abundance fitness = -0.136

Lab note: I22R gave abundance fitness of 0.021

Kindly note the recorded abundance fitness for G2R , which is -0.447

Record C28K , field abundance fitness: -0.377

Entry Q21T ; abundance fitness = -0.08

Entry K1V ; abundance fitness = -0.825

// abundance fitness value for C28S : -0.169
